system: Shigella flexneri; assay: growth AUC normalised to DMSO control (fraction of control); higher = less growth inhibition, active = hit call of the paper; details: 20 µM
Structures can show the parent of a compound that is named as a salt.
property-label: growth AUC normalised to DMSO control
# answer = number (no unit)

CCOC(=O)C1=C(C)NC(C)=C(C(=O)OC)C1c1cccc(Cl)c1Cl (centres undefined) has a reported growth AUC normalised to DMSO control of 1

CN1CCN(CCCN2c3ccccc3Sc3ccc(S(=O)(=O)N(C)C)cc32)CC1 [Thioproperazine dimesylate] has a reported growth AUC normalised to DMSO control of 0.986

CC1(C)O[C@@H]2[C@@H](CO[C@@]3(COS(N)(=O)=O)OC(C)(C)O[C@@H]23)O1 [Topiramate] has a reported growth AUC normalised to DMSO control of 1.02

CN1CCN(CCCN2c3ccccc3Sc3ccc(Cl)cc32)CC1 [Prochlorperazine dimaleate] has a reported growth AUC normalised to DMSO control of 1.02

CC(=O)CCCCn1c(=O)c2c(ncn2C)n(C)c1=O has a reported growth AUC normalised to DMSO control of 0.979

Clc1ccc(COC(Cn2ccnc2)c2ccc(Cl)cc2Cl)c(Cl)c1 (centres undefined) has a reported growth AUC normalised to DMSO control of 1.01

CC(C(=O)O)c1ccc(C(=O)c2ccccc2)s1 (centres undefined) has a reported growth AUC normalised to DMSO control of 1.01

O=C(O)CCCC[C@@H]1SC[C@@H]2NC(=O)N[C@@H]21 has a reported growth AUC normalised to DMSO control of 0.975

COC(=O)Nc1nc2ccc(SC(C)C)cc2[nH]1 has a reported growth AUC normalised to DMSO control of 1

CC(C)/N=c1\cc2n(-c3ccc(Cl)cc3)c3ccccc3nc-2cc1Nc1ccc(Cl)cc1 has a reported growth AUC normalised to DMSO control of 0.996

Nc1ncnc2c1ncn2[C@@H]1O[C@H](CO)[C@@H](O)[C@@H]1O has a reported growth AUC normalised to DMSO control of 0.984

CN1CCC(=C2c3ccccc3C=Cc3ccccc32)CC1 [Cyproheptadine hydrochloride] has a reported growth AUC normalised to DMSO control of 1

c1ccc2c(CC3=NCCN3)cccc2c1 [Naphazoline hydrochloride] has a reported growth AUC normalised to DMSO control of 1.01

COC(=O)Nc1nc2cc(C(=O)c3ccccc3)ccc2[nH]1 has a reported growth AUC normalised to DMSO control of 0.975

---

tested on: S. enterica typhimurium WT; assay: growth AUC normalised to DMSO control (median) (fraction of control); higher = less growth inhibition, active = hit call of the paper; details: 20 µM;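 further: active when median AUC fell below 0.1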
Counter-ions that a name gives are not always drawn.
Give growth AUC normalised to DMSO control for every item shown.
# answer = number (no unit)

C[C@H](CCC(=O)O)[C@H]1CC[C@H]2[C@@H]3[C@@H](O)C[C@@H]4C[C@H](O)CC[C@]4(C)[C@H]3CC[C@]12C has a reported growth AUC normalised to DMSO control of 1

COc1ccccc1OCC(O)COC(N)=O (configuration not stated) has a reported growth AUC normalised to DMSO control of 1

COc1ccnc(C[S+]([O-])c2nc3cc(OC(F)F)ccc3[nH]2)c1OC (configuration not stated) [Pantoprazole sodium] has a reported growth AUC normalised to DMSO control of 1.01

NNC(=O)c1ccncc1 has a reported growth AUC normalised to DMSO control of 1.01

CC(C)Nc1cccnc1N1CCN(C(=O)c2cc3cc(NS(C)(=O)=O)ccc3[nH]2)CC1 has a reported growth AUC normalised to DMSO control of 1.02

CCCCC[C@H](O)/C=C/[C@H]1[C@H](O)CC(=O)[C@@H]1CCCCCCC(=O)O has a reported growth AUC normalised to DMSO control of 1

CCCc1nc(C)c2c(=O)nc(-c3cc(S(=O)(=O)N4CCN(CC)CC4)ccc3OCC)[nH]n12 has a reported growth AUC normalised to DMSO control of 0.983

CN[C@@H]1[C@H](O[C@H]2[C@H](O[C@H]3[C@H](O)[C@@H](O)[C@H](N=C(N)N)[C@@H](O)[C@@H]3N=C(N)N)O[C@@H](C)[C@]2(O)C=O)O[C@@H](CO)[C@H](O)[C@H]1O [Streptomycin sulfate] has a reported growth AUC normalised to DMSO control of 0.983

O=c1[nH]cnc2c1ncn2[C@H]1CC[C@@H](CO)O1 has a reported growth AUC normalised to DMSO control of 0.992

CCOc1ccc(NC(C)=O)cc1 has a reported growth AUC normalised to DMSO control of 1

CNc1ncnc2c1ncn2[C@@H]1O[C@H](CO)[C@@H](O)[C@H]1O has a reported growth AUC normalised to DMSO control of 1.02

CCN1CCCC(OC(=O)C(c2ccccc2)c2ccccc2)C1 (configuration not stated) [Piperidolate hydrochloride] has a reported growth AUC normalised to DMSO control of 0.998

Hello, the source for this data is the supplement of paper PMC12350171, in case you need it.
